target: Human Fc (human); test: ELISA, negative control
Could you label it t if measured optical density is 0.3 OD or higher, and f otherwise?

Quick check: does 370_C05 (antibody, V domains shown) VH: EVQLLESGGGLVQPGGSLRLSCAASGFTFSSYSMNWVRQAPGKGLEWVAGINYNSGYTGYADSVKGRFTISRDNSKNTLYLQMNSLRAEDTAVYYCARSANWHDTALDYWGQGTLVTVSS VL: DIQMTQSPSSLSASVGDRVTITCRASQSILSYVNWYQQKPGKAPKLVIYAATSRASGVPSRFSGSGSGTDFTLTISSLQPEDFATYYCQQSYNSPLTFGGGTKVEIK have optical density greater than or equal to 0.3 OD?
t

Quick check: does 371_F06 (antibody, V domains shown) VH: EVQLLESGGGLVQPGGSLRLSCAASGFTFDSYSMNWVRQAPGKGLEWVANINYNGGYTSYADSVKGRFTISRDNSKNTLYLQMNSLRAEDTAVYYCARSANWHDTALDYWGQGTLVTVSS VL: DIQMTQSPSSLSASVGDRVTITCRASQSIVSYLNWYQQKPGKAPKLVIYAATSRHSGVPSRFSGSGSGTDFTLTISSLQPEDFATYYCQQSYNSPLTFGGGTKVEIK have optical density greater than or equal to 0.3 OD?
f

Quick check: does 373_H05 (antibody, V domains shown) VH: EVQLLESGGGLVQPGGSLRLSCAASGFTFSDYSMNWVRQAPGKGLEWVANINYNGGYKGYADSVKGRFTISRDNSKNTLYLQMNSLRAEDTAVYYCARSANWHDTALDYWGQGTLVTVSS VL: DIQMTQSPSSLSASVGDRVTITCRASQSILTYVNWYQQKPGKAPKLVIYAATSRASGVPSRFSGSGSGTDFTLTISSLQPEDFATYYCQQSYETPLTFGGGTKVEIK have optical density greater than or equal to 0.3 OD?
f

Quick check: does 369_G04 (antibody, V domains shown) VH: EVQLLESGGGLVQPGGSLRLSCAASGFTFDSYSMNWVRQAPGKGLEWVSGINYNGGYTSYADSVKGRFTISRDNSKNTLYLQMNSLRAEDTAVYYCARSANWHDTALDYWGQGTLVTVSS VL: DIQMTQSPSSLSASVGDRVTITCRASQSILTYVNWYQQKPGKAPKLLIYATTSRHSGVPSRFSGSGSGTDFTLTISSLQPEDFATYYCQQSYETPLTFGGGTKVEIK have optical density greater than or equal to 0.3 OD?
t

Quick check: does 369_D12 (antibody, V domains shown) VH: EVQLLESGGGLVQPGGSLRLSCAASGFTFDSYSMNWVRQAPGKGLEWVAGINYNSGYTSYADSVKGRFTISRDNSKNTLYLQMNSLRAEDTAVYYCARSANWHDTALDYWGQGTLVTVSS VL: DIQMTQSPSSLSASVGDRVTITCRASQSILSYLNWYQQKPGKAPKLLIYAATSLASGVPSRFSGSGSGTDFTLTISSLQPEDFATYYCQQSYDTPLTFGGGTKVEIK have optical density greater than or equal to 0.3 OD?
t
